CC50 at 72 h values for the compounds below.
ASSAY: Cytotoxicity against human Huh7.5 cells assessed as reduction in cell viability after 3 days by MTT assay
Assay type: cell-based
TEST SETTINGS: time 3 day

{"COMPOUND": "COc1ccc(CCN(C(=O)Cc2c[nH]c3ccccc23)C(C(=O)NC2CCCCC2)c2cc(OC)c(OC)c(OC)c2)cc1OC (stereo not given)", "READOUT RELATION": ">", "CC50 at 72 h, µM": 100}
{"COMPOUND": "COc1ccc(N(C(=O)Cc2c[nH]c3ccccc23)C(C(=O)NC2CCCCC2)c2cc(OC)c(OC)c(OC)c2)cc1 (stereo not given)", "READOUT RELATION": "=", "CC50 at 72 h, µM": 44.8}
{"COMPOUND": "COc1ccc(C(C(=O)NC2CCCCC2)N(C(=O)Cc2c[nH]c3ccccc23)c2ccc(C(C)C)cc2)cc1OC (stereo not given)", "READOUT RELATION": "=", "CC50 at 72 h, µM": 6.9}
{"COMPOUND": "NC(=O)c1ncn([C@@H]2O[C@H](CO)[C@@H](O)[C@H]2O)n1 [RIBAVIRIN]", "READOUT RELATION": "=", "CC50 at 72 h, µM": 16.3}
{"COMPOUND": "COc1cc(C(C(=O)NC(C)(C)C)N(C(=O)c2cc3ccccc3[nH]2)c2ccc(C(C)C)cc2)cc(OC)c1OC (stereo not given)", "READOUT RELATION": "=", "CC50 at 72 h, µM": 36.7}
{"COMPOUND": "COc1ccc(N(C(=O)Cc2c[nH]c3ccccc23)C(C(=O)NC2CCCCC2)c2ccc(OC)c(OC)c2)cc1 (stereo not given)", "READOUT RELATION": "=", "CC50 at 72 h, µM": 32.7}
{"COMPOUND": "COc1cc(C(C(=O)NC(C)(C)C)N(C(=O)Cc2c[nH]c3ccccc23)c2ccc(C(C)C)cc2)cc(OC)c1OC (stereo not given)", "READOUT RELATION": "=", "CC50 at 72 h, µM": 13.9}
{"COMPOUND": "COc1ccc(C(C(=O)NC2CCCCC2)N(C(=O)Cc2c[nH]c3ccccc23)c2ccc(C(C)C)cc2)c(OC)c1OC (stereo not given)", "READOUT RELATION": "=", "CC50 at 72 h, µM": 5.9}
{"COMPOUND": "COc1cc(C(C(=O)NC2CCCCC2)N(C(=O)Cc2c[nH]c3ccccc23)c2ccc(C(C)C)cc2)cc(OC)c1OC (stereo not given)", "READOUT RELATION": ">", "CC50 at 72 h, µM": 100}
{"COMPOUND": "COc1ccc(N(C(=O)Cc2c[nH]c3ccccc23)C(C(=O)NC2CCCCC2)c2cc(OC)c(OC)c(OC)c2)cc1OC (stereo not given)", "READOUT RELATION": "=", "CC50 at 72 h, µM": 56.7}

###

SYSTEM TESTED: Peptidyl-prolyl cis-trans isomerase A (Homo sapiens)
Sequence (P62937 whole entry): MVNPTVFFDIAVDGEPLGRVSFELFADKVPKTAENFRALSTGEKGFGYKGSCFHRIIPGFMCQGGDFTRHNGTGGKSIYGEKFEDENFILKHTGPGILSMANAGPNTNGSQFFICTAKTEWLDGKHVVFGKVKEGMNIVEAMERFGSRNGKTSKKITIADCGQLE
pKd: −log10 of the molar value.

{"MOLECULE": "COc1ccc(CCN(C(=O)Cc2c[nH]c3ccccc23)C(C(=O)NC2CCCCC2)c2cc(OC)c(OC)c(OC)c2)cc1OC (stereo unspecified)", "pKd": 5.44}

###

ASSAY: Cytotoxicity against human Huh7.5 cells assessed as reduction in cell viability after 3 days by MTT assay
Format: cell-based
TEST SETTINGS: time 3 day

{"COMPOUND": "COc1ccc(Cn2cc(CC(=O)N(c3ccccc3)C(C(=O)NC3CCCCC3)c3ccccc3)c3ccccc32)cc1 (stereo not drawn)", "CC50 at 72 h / µM": 24.4}
{"COMPOUND": "COc1ccc(C(C(=O)NC2CCCCC2)N(C(=O)Cc2c[nH]c3ccccc23)c2ccc(OC)c(OC)c2)cc1OC (stereo not drawn)", "CC50 at 72 h / µM": 55.3}
{"COMPOUND": "COc1ccc(C(C(=O)NC2CCCCC2)N(C(=O)Cc2c[nH]c3ccccc23)c2ccc(Br)cc2)c(OC)c1OC (stereo not drawn)", "CC50 at 72 h / µM": 7.2}

###

Some compounds, each annotated with its measured selectivity ratio.
ASSAY: Selectivity index, ratio of CC50 for human Huh7.5 cells to EC50 for HCV genotype 2a JFH-1 infected in human Huh7.5 cells
Assay type: toxicity, cell-based
TEST SETTINGS: read-out: Ratio CC50/EC50
READOUT: selectivity ratio

{"COMPOUND": "COc1ccc(CCN(C(=O)Cc2c[nH]c3ccccc23)C(C(=O)NC2CCCCC2)c2cc(OC)c(OC)c(OC)c2)cc1OC (stereo not drawn)", "OBSERVED VALUE": "> 18.9"}
{"COMPOUND": "COc1cc(C(C(=O)NC2CCCCC2)N(C(=O)Cc2c[nH]c3ccccc23)c2ccc(C(C)C)cc2)cc(OC)c1OC (stereo not drawn)", "OBSERVED VALUE": "> 19.2"}
{"COMPOUND": "NC(=O)c1ncn([C@@H]2O[C@H](CO)[C@@H](O)[C@H]2O)n1", "OBSERVED VALUE": "> 6.1"}
